// provenance: paper PMC9217908

# system name: CAT1 (cationic amino acid transporter 1, CAT1/SLC7A1) (Homo sapiens)
# Construct: full-length human transporter stably transfected in HEK cells (HEK-CAT1); net uptake against HEK-VC vector control cells
# Sequence (P30825 whole entry): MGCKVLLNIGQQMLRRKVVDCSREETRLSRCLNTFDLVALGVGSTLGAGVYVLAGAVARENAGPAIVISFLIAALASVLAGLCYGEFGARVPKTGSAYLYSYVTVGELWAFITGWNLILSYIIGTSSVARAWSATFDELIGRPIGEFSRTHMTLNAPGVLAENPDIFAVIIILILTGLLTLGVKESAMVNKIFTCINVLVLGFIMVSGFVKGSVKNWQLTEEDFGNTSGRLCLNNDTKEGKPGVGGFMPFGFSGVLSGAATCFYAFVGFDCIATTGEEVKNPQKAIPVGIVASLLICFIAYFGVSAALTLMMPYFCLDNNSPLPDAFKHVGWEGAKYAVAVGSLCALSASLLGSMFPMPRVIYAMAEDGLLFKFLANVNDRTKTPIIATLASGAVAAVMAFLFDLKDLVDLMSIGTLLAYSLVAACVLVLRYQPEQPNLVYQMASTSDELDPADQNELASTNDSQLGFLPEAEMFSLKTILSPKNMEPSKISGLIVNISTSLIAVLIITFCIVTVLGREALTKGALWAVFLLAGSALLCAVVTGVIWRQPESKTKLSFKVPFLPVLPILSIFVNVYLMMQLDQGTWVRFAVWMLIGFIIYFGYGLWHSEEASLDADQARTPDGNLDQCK
# procedure details: cell-based
# Set-up: species or system HEK-CAT1 (HEK293 stably transfected); Inhibition of net CAT1-mediated [3H]-L-arginine (100 uM) uptake, 5 min, scintillation counting, vector control subtracted
# conditions used: HEK293; L-arginine 100 uM as substrate; read-out: % Inhibition of L-arginine uptake at 20 µM
outcome measure: inhibition at 20 µM (%)
Numbers only; they are read as %.

{"compound": "CCOc1nc2cccc(C(=O)O)c2n1Cc1ccc(-c2ccccc2-c2nnn[nH]2)cc1", "recorded measurement": 14.5}
{"compound": "CN(C)CCCN1c2ccccc2CCc2ccccc21", "recorded measurement": 0.08}

Inquiry: Can you look up the measured inhibition at 20 µM of O[C@@H](CNC[C@H](O)[C@H]1CCc2cc(F)ccc2O1)[C@@H]1CCc2cc(F)ccc2O1 (racemic) for me?
Reply text: 5.2

Inquiry: Try this compound next: COCCc1ccc(OCC(O)CNC(C)C)cc1 (stereo not drawn)
Reply text: 8.1

Inquiry: Try this compound next: `COc1ccc2c(c1)[C@]13CCCC[C@@H]1[C@H](C2)N(C)CC3`
Reply text: 7.3

Inquiry: Try this compound next: N=C(N)NC(=O)c1nc(Cl)c(N)nc1N [Amiloride]
Reply text: -0.1

Inquiry: Try this compound next: `CCc1nc(N)nc(N)c1-c1ccc(Cl)cc1`
Reply text: 6.9

* * *

Below: a set of entries, each annotated with reported inhibition at 200 µM.
# system name: CAT1 (cationic amino acid transporter 1, CAT1/SLC7A1) (Homo sapiens)
# Construct: full-length human transporter stably transfected in HEK cells (HEK-CAT1); net uptake against HEK-VC vector control cells
# procedure details: cell-based
# Set-up: species or system HEK-CAT1 (HEK293 stably transfected); Inhibition of net CAT1-mediated [3H]-L-arginine (100 uM) uptake, 5 min, scintillation counting, vector control subtracted
# conditions used: HEK293; L-arginine 100 uM as substrate; read-out: % Inhibition of L-arginine uptake at 200 µM
Numbers only; they are read as %.

Below: 2 compounds and their reported inhibition at 200 µM.
{"compound": "Cc1ccc(-c2ncc(Cl)cc2-c2ccc(S(C)(=O)=O)cc2)cn1 [Etorixocib]", "outcome measure": "inhibition at 200 µM", "unit symbol": "%", "recorded measurement": -20.7}
{"compound": "C[C@H]1c2cccc(O)c2C(=O)C2=C(O)[C@]3(O)C(=O)C(C(N)=O)=C(O)[C@@H](N(C)C)[C@@H]3[C@@H](O)[C@@H]21 [Doxycycline]", "outcome measure": "inhibition at 200 µM", "unit symbol": "%", "recorded measurement": 6.2}

Inquiry: Can you look up the measured inhibition at 200 µM of COc1ccc2c(c1)[C@]13CCCC[C@@H]1[C@H](C2)N(C)CC3 [Dextromethorphan] for me?
Reply text: 2.9

Inquiry: Try this compound next: CC1(C)S[C@@H]2[C@H](NC(=O)[C@H](N)c3ccc(O)cc3)C(=O)N2[C@H]1C(=O)O [Amoxicillin]
Reply text: 5.9

Inquiry: Try this compound next: Cc1ccc(NC(=O)c2ccc(CN3CCN(C)CC3)cc2)cc1Nc1nccc(-c2cccnc2)n1 [Imatinib]
Reply text: -42.8

Inquiry: Try this compound next: COc1ccc(OC)c(C(O)C(C)N)c1 (centres unmarked) [Methoxamine]
Reply text: -23.9

Inquiry: Try this compound next: CN/C(=N\CCSCc1nc[nH]c1C)NC#N [Cimetidine]
Reply text: -65.4

Inquiry: Try this compound next: CC(=O)S[C@@H]1CC2=CC(=O)CC[C@]2(C)[C@H]2CC[C@@]3(C)[C@@H](CC[C@@]34CCC(=O)O4)[C@H]12 [Spironolactone]
Reply text: -4.8
